FYI, the data here is from the MegaScale stability set (Tsuboyama et al. 2023).

Listing of entries alongside the reported folding stability dG.
B1: EEHEE_rd4_0647 (parent)
chain: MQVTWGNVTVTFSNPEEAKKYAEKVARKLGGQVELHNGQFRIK

# Variants of: B1
# experimentalDetails: folding stability dG (cDNA display proteolysis); higher = more stable
# protocolConditions: PBS, room temperature

residueCodes: MQVTWGNVTVTFSNPEEAKKYAEKVAVKLGGQVELHNGQFRIK [R27V]
folding stability dG: 2.36 kcal/mol

residueCodes: MQVTWGNVTVTFSNPEEAKKYAEKVHRKLGGQVELHNGQFRIK [A26H]
folding stability dG: 0.769 kcal/mol

residueCodes: MQVTWGNVTVTFSNPEEAKKYAEKVARKLGGQEELHNGQFRIK [V33E]
folding stability dG: 0.359 kcal/mol

residueCodes: MQVTWWNVTVTFSNPEEAKKYAEKVARKLGGQVELHNGQFRIK [G6W]
folding stability dG: 2.76 kcal/mol

residueCodes: MQVTWGNVGVTFSNPEEAKKYAEKVARKLGGQVELHNGQFRIK [T9G]
folding stability dG: 0.945 kcal/mol

residueCodes: MQVTWGNVTVTFSNPEEAKKYAEKVARHLGGQVELHNGQFRIK [K28H]
folding stability dG: 2.9 kcal/mol

residueCodes: MQVTWGNVTVTFSNPMEAKKYAEKVARKLGGQVELHNGQFRIK [E16M]
folding stability dG: 2.76 kcal/mol

residueCodes: MQVTWGNVTVTFSNPEMAKKYAEKVARKLGGQVELHNGQFRIK [E17M]
folding stability dG: 2.83 kcal/mol

residueCodes: MQVTWGNVTVTFSNPEEAKKYAEKVARKNGGQVELHNGQFRIK [L29N]
folding stability dG: 1.6 kcal/mol

residueCodes: MQVTWGNVTVTFSNPEEAKKYAESVARKLGGQVELHNGQFRIK [K24S]
folding stability dG: 2.73 kcal/mol

residueCodes: MQVTWGNVTVTFSNCEEAKKYAEKVARKLGGQVELHNGQFRIK [P15C]
folding stability dG: 3.26 kcal/mol

residueCodes: MQVTDGNVTVTFSNPEEAKKYAEKVARKLGGQVELHNGQFRIK [W5D]
folding stability dG: 1.03 kcal/mol

residueCodes: MQVTWGNVTVTFSNPEEAKKYAEKVARKLGGQVELRNGQFRIK [H36R]
folding stability dG: 2.58 kcal/mol

residueCodes: MQVTWGNVTVTFSNPEEAKKYAEKVARKLGGVVELHNGQFRIK [Q32V]
folding stability dG: 3.29 kcal/mol

residueCodes: MQVTWGNVTVTFSNPEEAKKYAEKVARLLGGQVELHNGQFRIK [K28L]
folding stability dG: 3.15 kcal/mol

residueCodes: MQVTWGNVTVTFSNPEEAKKYAEKVARKLGGQVGLHNGQFRIK [E34G]
folding stability dG: 1.41 kcal/mol

residueCodes: MQVTWGNVTVTFSNPEEAKKYAEKVARKLGGQWELHNGQFRIK [V33W]
folding stability dG: 2.13 kcal/mol

residueCodes: MQVTWGNVTVTFSNPEEAKKYAKKVARKLGGQVELHNGQFRIK [E23K]
folding stability dG: 2.29 kcal/mol

residueCodes: MQVTWGNVTVTFSNPEEAKKNAEKVARKLGGQVELHNGQFRIK [Y21N]
folding stability dG: 0.633 kcal/mol

residueCodes: MQVTWGNVTVTFSNPEEAKKYLEKVARKLGGQVELHNGQFRIK [A22L]
folding stability dG: 1.62 kcal/mol

residueCodes: MQVTWGNVTVTFSIPEEAKKYAEKVARKLGGQVELHNGQFRIK [N14I]
folding stability dG: 2.08 kcal/mol

residueCodes: MQVKWGNVTVTFSNPEEAKKYAEKVARKLGGQVELHNGQFRIK [T4K]
folding stability dG: 2.58 kcal/mol

residueCodes: MQVTWGNVTVTFSNPGEAKKYAEKVARKLGGQVELHNGQFRIK [E16G]
folding stability dG: 2.54 kcal/mol

residueCodes: MQVTWGNVTVTFSNPEEAKKYAEKVARKLGGQVELHNGQPRIK [F40P]
folding stability dG: 0.658 kcal/mol

residueCodes: MQVTWGNVTVTFSNPEEAKKYAEKVARKLGGQVELHNGQFRIR [K43R]
folding stability dG: 2.98 kcal/mol

residueCodes: MQVTWGNVTVTFSNPEEAKKWAEKVARKLGGQVELHNGQFRIK [Y21W]
folding stability dG: 2.52 kcal/mol

residueCodes: MQVTWGNVTVTFSNPEEAKKYVEKVARKLGGQVELHNGQFRIK [A22V]
folding stability dG: 1.43 kcal/mol

residueCodes: MQVTWGNVTVTFSNPEEAKKYPEKVARKLGGQVELHNGQFRIK [A22P]
folding stability dG: -0.509 kcal/mol

residueCodes: MQVTWGNVTVTFSNPEEAKYYAEKVARKLGGQVELHNGQFRIK [K20Y]
folding stability dG: 2.43 kcal/mol

residueCodes: MQVTWGNVTVAFSNPEEAKKYAEKVARKLGGQVELHNGQFRIK [T11A]
folding stability dG: 2.38 kcal/mol

residueCodes: MQVTWGNVTVTFSNPEEAKKYAEKVARKLAGQVELHNGQFRIK [G30A]
folding stability dG: 1.88 kcal/mol

residueCodes: MHVTWGNVTVTFSNPEEAKKYAEKVARKLGGQVELHNGQFRIK [Q2H]
folding stability dG: 2.3 kcal/mol

residueCodes: MQVTWGNVTVTFSNPEEAKKYAEKVARKLGGQVELHNGQFRIP [K43P]
folding stability dG: 1.8 kcal/mol

residueCodes: MQVTWGNVTVTFSNPEEAKKYAPKVARKLGGQVELHNGQFRIK [E23P]
folding stability dG: 0.119 kcal/mol

residueCodes: MQVTWGNVTVTFSEPEEAKKYAEKVARKLGGQVELHNGQFRIK [N14E]
folding stability dG: 2.2 kcal/mol

residueCodes: MQVTWGNVTVTFSNGEEAKKYAEKVARKLGGQVELHNGQFRIK [P15G]
folding stability dG: 2.46 kcal/mol

residueCodes: MQVTWGNVTVTFSNPEEAKKYAEKVARKLGGQVELCNGQFRIK [H36C]
folding stability dG: 3.37 kcal/mol

residueCodes: MQVTWGNVTVTFSNPEEAGKYAEKVARKLGGQVELHNGQFRIK [K19G]
folding stability dG: 1.83 kcal/mol

residueCodes: MQVTWGNVTVTFRNPEEAKKYAEKVARKLGGQVELHNGQFRIK [S13R]
folding stability dG: 2.81 kcal/mol

residueCodes: MQVTWGNVTVTFLNPEEAKKYAEKVARKLGGQVELHNGQFRIK [S13L]
folding stability dG: 2.57 kcal/mol

residueCodes: MQVTWGNVTVTFSNPEEAKKYAEKVARKLGGPVELHNGQFRIK [Q32P]
folding stability dG: 1.33 kcal/mol

residueCodes: MQVTWGNVTVTFSNPEEAKKYAEKVARKLGGQVELQNGQFRIK [H36Q]
folding stability dG: 2.54 kcal/mol

residueCodes: MQVTWGNVTVTFSNPEEAKKYAEKVARKLGGQVELWNGQFRIK [H36W]
folding stability dG: 2.85 kcal/mol

residueCodes: MQVTWGNVTVTFSNPEEAKKYAEKVARKLGGQVKLHNGQFRIK [E34K]
folding stability dG: 1.73 kcal/mol

residueCodes: MQVTWGNVTVTFSNPEEAKKYAEKVARKLGGQVTLHNGQFRIK [E34T]
folding stability dG: 2.44 kcal/mol

residueCodes: MQVTWGNVTVTFSNPEEAKKYAEKVCRKLGGQVELHNGQFRIK [A26C]
folding stability dG: 2.08 kcal/mol
